// data source = paper PMC12090182

- Tested on: LIMK2 (Homo sapiens, UniProt P53671)
- Sequence (P53671 whole entry): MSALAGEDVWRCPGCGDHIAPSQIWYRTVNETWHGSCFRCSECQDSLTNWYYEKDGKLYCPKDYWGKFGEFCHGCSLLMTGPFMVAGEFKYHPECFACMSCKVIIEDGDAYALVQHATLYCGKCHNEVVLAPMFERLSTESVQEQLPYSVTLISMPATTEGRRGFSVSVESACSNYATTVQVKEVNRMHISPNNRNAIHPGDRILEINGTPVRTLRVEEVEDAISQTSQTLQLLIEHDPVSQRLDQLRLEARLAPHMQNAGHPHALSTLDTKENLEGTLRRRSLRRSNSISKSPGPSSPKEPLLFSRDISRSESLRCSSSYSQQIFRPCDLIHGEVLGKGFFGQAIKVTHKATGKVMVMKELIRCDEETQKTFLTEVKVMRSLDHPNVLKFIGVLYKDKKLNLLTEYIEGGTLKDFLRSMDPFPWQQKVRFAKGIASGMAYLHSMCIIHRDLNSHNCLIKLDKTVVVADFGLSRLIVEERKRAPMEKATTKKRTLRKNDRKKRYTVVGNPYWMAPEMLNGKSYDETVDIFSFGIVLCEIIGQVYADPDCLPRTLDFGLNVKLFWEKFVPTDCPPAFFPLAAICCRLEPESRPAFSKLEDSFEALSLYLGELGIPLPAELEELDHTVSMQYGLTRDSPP
- Test: NanoBRET cellular target engagement
- Conditions: LIMK2, HEK293T cells

- Smi: "CN1C(=O)[C@@H](N2CCc3cn(Cc4ccccc4)nc3C2=O)COc2ccccc21"
  EC50, µM: 38

====

- Test: Pharmacokinetic screening in mice (IV and PO, cassette dosing)
- Format: in vivo, mouse
- Conditions: plasma, 0.1 mg/kg; Mouse PK IV, 0.10 mg/kg; read-out: AUCiv

- Molecule: "CN1C(=O)[C@@H](N2CCc3c(nn(Cc4ccccc4)c3C(N)=O)C2=O)COc2cc(Cl)ccc21 [Compound 10]"
  AUC / ng·h/mL: 94.7

====

- Tested on: RIPK1 (Homo sapiens, UniProt Q13546)
- Construct: full-length LIMK1/2, RIPK1, BTK, and LRRK2 cloned in a frame in a NanoLuc-vector (Promega); host or cells: HEK293T
- Test: NanoBRET cellular target engagement
- Format: cell-based
- Conditions: RIPK1, HEK293T cells; read-out: EC50 (NanoBRET)
Quantity name: EC50 (µM)

- Compound: "CN1C(=O)[C@@H](N2CCc3c(C(N)=O)nn(Cc4ccccc4)c3C2=O)COc2ccccc21 [Compound 11]"
  Tested on: "RIPK1 (Homo sapiens, UniProt Q13546)"
  Quantity name: "EC50"
  Recorded measurement: 3.5

====

- Tested on: LRRK2 (Homo sapiens)
- Sequence (Q5S007 whole entry): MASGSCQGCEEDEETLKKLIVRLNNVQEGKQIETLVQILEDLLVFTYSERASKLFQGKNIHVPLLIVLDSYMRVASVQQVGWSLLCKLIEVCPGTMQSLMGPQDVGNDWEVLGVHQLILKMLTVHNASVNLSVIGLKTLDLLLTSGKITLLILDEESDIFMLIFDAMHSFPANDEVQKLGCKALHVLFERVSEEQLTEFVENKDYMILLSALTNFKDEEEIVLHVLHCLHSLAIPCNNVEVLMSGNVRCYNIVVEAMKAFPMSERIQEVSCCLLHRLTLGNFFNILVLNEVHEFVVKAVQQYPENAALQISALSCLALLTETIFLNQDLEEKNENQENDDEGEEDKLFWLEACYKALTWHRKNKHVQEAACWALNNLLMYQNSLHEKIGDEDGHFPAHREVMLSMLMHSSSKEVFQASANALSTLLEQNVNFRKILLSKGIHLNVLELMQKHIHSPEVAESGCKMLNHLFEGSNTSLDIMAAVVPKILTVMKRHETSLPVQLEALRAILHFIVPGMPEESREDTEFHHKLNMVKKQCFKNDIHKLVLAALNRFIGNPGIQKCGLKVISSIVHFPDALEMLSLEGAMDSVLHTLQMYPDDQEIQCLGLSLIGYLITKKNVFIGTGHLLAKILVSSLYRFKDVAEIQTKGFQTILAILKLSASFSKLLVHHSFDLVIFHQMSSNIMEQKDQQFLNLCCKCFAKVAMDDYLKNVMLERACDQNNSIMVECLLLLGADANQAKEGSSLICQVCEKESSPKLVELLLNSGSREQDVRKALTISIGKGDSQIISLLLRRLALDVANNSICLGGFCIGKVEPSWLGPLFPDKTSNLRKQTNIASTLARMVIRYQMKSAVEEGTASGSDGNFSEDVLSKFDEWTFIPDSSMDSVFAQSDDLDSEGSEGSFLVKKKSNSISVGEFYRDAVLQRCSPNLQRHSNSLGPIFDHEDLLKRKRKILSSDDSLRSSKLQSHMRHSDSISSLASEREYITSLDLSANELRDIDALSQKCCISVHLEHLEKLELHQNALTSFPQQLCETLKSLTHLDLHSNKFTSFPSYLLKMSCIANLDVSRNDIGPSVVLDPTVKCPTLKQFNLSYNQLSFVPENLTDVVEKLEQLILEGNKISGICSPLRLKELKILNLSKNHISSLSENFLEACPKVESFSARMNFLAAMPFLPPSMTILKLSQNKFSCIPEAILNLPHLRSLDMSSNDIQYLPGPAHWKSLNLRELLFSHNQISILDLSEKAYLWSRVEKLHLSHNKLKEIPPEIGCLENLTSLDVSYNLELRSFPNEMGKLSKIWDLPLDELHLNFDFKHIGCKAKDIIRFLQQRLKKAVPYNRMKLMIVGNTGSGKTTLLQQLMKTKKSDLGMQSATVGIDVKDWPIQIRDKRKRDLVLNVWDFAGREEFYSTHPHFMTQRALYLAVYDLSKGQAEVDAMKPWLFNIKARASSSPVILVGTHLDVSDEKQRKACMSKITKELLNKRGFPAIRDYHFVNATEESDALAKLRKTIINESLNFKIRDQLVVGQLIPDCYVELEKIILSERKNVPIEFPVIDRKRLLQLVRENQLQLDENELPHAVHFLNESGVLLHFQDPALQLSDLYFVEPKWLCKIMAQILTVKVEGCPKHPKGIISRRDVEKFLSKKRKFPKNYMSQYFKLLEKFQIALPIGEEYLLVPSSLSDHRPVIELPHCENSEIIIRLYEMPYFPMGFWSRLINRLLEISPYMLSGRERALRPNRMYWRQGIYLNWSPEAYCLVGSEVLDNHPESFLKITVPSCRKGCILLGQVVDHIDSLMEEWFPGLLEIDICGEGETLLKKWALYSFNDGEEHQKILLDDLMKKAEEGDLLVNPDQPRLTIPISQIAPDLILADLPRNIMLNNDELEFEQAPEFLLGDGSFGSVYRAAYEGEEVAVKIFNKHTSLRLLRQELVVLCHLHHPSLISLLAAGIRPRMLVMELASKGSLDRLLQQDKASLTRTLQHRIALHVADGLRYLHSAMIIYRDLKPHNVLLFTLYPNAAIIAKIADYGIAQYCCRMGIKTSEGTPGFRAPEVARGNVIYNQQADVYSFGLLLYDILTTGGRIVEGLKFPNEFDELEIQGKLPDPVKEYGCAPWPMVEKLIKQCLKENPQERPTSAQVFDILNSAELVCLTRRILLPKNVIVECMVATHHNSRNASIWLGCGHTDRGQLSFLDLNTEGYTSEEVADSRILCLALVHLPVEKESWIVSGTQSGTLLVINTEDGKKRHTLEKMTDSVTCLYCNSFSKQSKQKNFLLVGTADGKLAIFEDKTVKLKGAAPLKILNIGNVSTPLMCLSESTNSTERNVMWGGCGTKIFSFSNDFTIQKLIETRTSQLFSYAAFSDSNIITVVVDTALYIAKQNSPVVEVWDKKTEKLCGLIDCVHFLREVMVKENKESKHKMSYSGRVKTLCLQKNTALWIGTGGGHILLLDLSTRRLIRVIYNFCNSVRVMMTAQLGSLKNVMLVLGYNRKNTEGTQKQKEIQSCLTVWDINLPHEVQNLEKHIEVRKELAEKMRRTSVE
- Test: NanoBRET cellular target engagement
- Conditions: LRRK2, HEK293T cells; read-out: EC50 (NanoBRET), Figure 4C

- Molecule: "CN1C(=O)[C@@H](N2CCc3c(nn(Cc4ccccc4)c3C(N)=O)C2=O)COc2cc(Cl)ccc21 [Compound 10]"
  EC50: "> 50 µM"

====

- Tested on: BTK (Homo sapiens, UniProt Q06187)
- Construct: full-length LIMK1/2, RIPK1, BTK, and LRRK2 cloned in a frame in a NanoLuc-vector (Promega)
- Sequence (Q06187 whole entry): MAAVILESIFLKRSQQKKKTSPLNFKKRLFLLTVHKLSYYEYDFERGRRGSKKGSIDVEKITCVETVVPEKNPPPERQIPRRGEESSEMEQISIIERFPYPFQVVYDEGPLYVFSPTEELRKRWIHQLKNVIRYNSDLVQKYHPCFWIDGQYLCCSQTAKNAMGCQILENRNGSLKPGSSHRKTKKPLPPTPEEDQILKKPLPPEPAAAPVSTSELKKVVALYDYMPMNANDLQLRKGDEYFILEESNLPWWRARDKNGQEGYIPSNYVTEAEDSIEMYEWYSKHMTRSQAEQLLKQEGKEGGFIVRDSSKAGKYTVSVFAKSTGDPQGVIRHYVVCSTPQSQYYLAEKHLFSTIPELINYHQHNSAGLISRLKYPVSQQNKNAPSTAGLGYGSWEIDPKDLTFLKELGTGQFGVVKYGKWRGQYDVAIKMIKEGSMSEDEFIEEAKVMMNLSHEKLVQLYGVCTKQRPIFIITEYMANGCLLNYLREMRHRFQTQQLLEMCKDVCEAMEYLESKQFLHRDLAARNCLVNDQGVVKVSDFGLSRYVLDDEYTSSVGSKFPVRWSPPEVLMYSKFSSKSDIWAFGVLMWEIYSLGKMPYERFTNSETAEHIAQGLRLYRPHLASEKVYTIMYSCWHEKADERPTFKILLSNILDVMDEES
- Test: NanoBRET cellular target engagement
- Conditions: HEK293T cells, read-out: EC50 (NanoBRET), Figure 4C
pEC50: −log10 of the molar value.

- Smi: "CN1C(=O)[C@@H](N2CCc3c(nn(Cc4ccccc4)c3C(N)=O)C2=O)COc2cc(Cl)ccc21"
  pEC50: "< 4.30"

====

- Test: Pharmacokinetic screening in mice (IV and PO, cassette dosing)
- Format: in vivo, mouse
- Conditions: plasma; Mouse PK PO, 1.0 mg/kg
Quantity name: Tmax (min)

- Smi: "CN1C(=O)[C@@H](N2CCc3c(nn(Cc4ccccc4)c3C(N)=O)C2=O)COc2cc(Cl)ccc21"
  Recorded measurement: 30

====

- Test: Pharmacokinetic screening in mice (IV and PO, cassette dosing)
- Type: in vivo, mouse
- Conditions: plasma; Mouse PK PO, 1.0 mg/kg
Quantity name: Cmax (ng/mL)

- Smi: "CN1C(=O)[C@@H](N2CCc3c(nn(Cc4ccccc4)c3C(N)=O)C2=O)COc2cc(Cl)ccc21"
  Quantity name: "Cmax"
  Recorded measurement: 11.8

====

- Test: Pharmacokinetic screening in mice (IV and PO, cassette dosing)
- Format: in vivo, mouse
- Conditions: plasma; Mouse PK PO, 1.0 mg/kg; read-out: AUCpo
- Method: Test compounds were administered intravenously (0.1 mg mL^–1/kg) or orally (1 mg/5 mL/kg) by cassette dosing to nonfasted mice. After administration, blood samples were collected and centrifuged to obtain the plasma fraction. The plasma samples were deproteinized followed by centrifugation. The compound concentrations in the supernatant were analyzed by LC/MS/MS.

- Smi: "CN1C(=O)[C@@H](N2CCc3c(nn(Cc4ccccc4)c3C(N)=O)C2=O)COc2cc(Cl)ccc21"
  Display unit: "ng·h/mL"
  AUC: 30.9

====

- Tested on: LIMK1 (Homo sapiens)
- Sequence (P53667 whole entry): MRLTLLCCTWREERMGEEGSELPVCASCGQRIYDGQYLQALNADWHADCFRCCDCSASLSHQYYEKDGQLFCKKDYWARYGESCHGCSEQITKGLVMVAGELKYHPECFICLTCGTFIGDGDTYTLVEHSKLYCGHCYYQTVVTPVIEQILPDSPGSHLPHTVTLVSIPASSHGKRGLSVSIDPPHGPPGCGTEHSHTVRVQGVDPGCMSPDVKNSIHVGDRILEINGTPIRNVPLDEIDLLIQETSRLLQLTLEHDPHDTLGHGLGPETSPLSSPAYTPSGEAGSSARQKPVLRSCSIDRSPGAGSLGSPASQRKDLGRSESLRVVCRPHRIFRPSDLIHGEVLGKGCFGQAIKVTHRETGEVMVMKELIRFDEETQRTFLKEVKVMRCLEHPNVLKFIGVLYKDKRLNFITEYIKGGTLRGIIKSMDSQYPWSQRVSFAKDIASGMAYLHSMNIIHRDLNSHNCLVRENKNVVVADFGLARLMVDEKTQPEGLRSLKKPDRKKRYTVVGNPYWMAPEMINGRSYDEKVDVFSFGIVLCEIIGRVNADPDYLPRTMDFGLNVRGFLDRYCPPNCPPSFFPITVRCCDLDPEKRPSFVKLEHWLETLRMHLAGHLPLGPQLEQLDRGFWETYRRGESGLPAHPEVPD
- Test: NanoBRET cellular target engagement
- Conditions: LIMK1, HEK293T cells

- Smi: "CN1C(=O)[C@@H](N2CCc3cn(Cc4ccccc4)nc3C2=O)COc2ccccc21"
  EC50: "42 µM"

====

- Test: Pharmacokinetic screening in mice (IV and PO, cassette dosing)
- Type: in vivo, mouse
- Conditions: plasma, 0.1 mg/kg; Mouse PK IV, 0.10 mg/kg; read-out: C5min

- Compound: "CN1C(=O)[C@@H](N2CCc3c(nn(Cc4ccccc4)c3C(N)=O)C2=O)COc2cc(Cl)ccc21 [Compound 10]"
  concentration at 5 min, ng/mL: 44.5
